System: HDF (normal cells)
ASSAY_NAME: ATP level assay (CellTiter-Glo), percent of control
Format: cell-based
RECORDED_CONDITIONS: compound 100 uM + rotenone (approximately 1.25 μM), two hour incubation
MEASUREMENT_TYPE: POC (percent of control) HDF

MOLECULAR_STRING: CS(=O)(=O)NCc1c[nH]c2ccccc12
MEASUREMENT_TYPE: POC (percent of control) HDF
EXPERIMENTAL_RESULT: 86.9% of control
//
MOLECULAR_STRING: COc1ncccc1CNS(=O)(=O)c1ccccc1
MEASUREMENT_TYPE: POC (percent of control) HDF
EXPERIMENTAL_RESULT: 98.3% of control
//
MOLECULAR_STRING: O=S(=O)(NCc1cncnc1)c1ccccc1
MEASUREMENT_TYPE: POC (percent of control) HDF
EXPERIMENTAL_RESULT: 91.1% of control
//
MOLECULAR_STRING: O=S(=O)(NCc1c[nH]c2cccc(Br)c12)c1ccc(Cl)cc1
MEASUREMENT_TYPE: POC (percent of control) HDF
EXPERIMENTAL_RESULT: 66.6% of control
//
MOLECULAR_STRING: COc1ccc(S(=O)(=O)NCc2c[nH]c3ccccc23)cc1
MEASUREMENT_TYPE: POC (percent of control) HDF
EXPERIMENTAL_RESULT: 119.9% of control
//
MOLECULAR_STRING: O=S(=O)(NCc1cncnc1)c1ccc(Cl)cc1
MEASUREMENT_TYPE: POC (percent of control) HDF
EXPERIMENTAL_RESULT: 90.9% of control
//
MOLECULAR_STRING: Cc1ccc(S(=O)(=O)NCc2ccc3c(cnn3C)c2)cc1
MEASUREMENT_TYPE: POC (percent of control) HDF
EXPERIMENTAL_RESULT: 107.6% of control
//
MOLECULAR_STRING: O=S(=O)(NCc1cscn1)c1ccc(Cl)cc1
MEASUREMENT_TYPE: POC (percent of control) HDF
EXPERIMENTAL_RESULT: 95.7% of control
//
MOLECULAR_STRING: Cc1cccc2[nH]cc(CNS(=O)(=O)c3ccccc3)c12
MEASUREMENT_TYPE: POC (percent of control) HDF
EXPERIMENTAL_RESULT: 77.9% of control
//
MOLECULAR_STRING: Cc1ccc(S(=O)(=O)NCc2cscn2)cc1
MEASUREMENT_TYPE: POC (percent of control) HDF
EXPERIMENTAL_RESULT: 84.1% of control
//
MOLECULAR_STRING: Cc1cccc2c(CNS(=O)(=O)c3ccc(Cl)cc3)c[nH]c12
MEASUREMENT_TYPE: POC (percent of control) HDF
EXPERIMENTAL_RESULT: 62.2% of control
//
MOLECULAR_STRING: O=S(=O)(NCc1c[nH]c2ccccc12)c1ccc(C(F)(F)F)cc1
MEASUREMENT_TYPE: POC (percent of control) HDF
EXPERIMENTAL_RESULT: 95.7% of control
//
MOLECULAR_STRING: Cn1cc(CNS(=O)(=O)c2ccc(Cl)cc2)c2ccccc21
MEASUREMENT_TYPE: POC (percent of control) HDF
EXPERIMENTAL_RESULT: 81.5% of control
//
MOLECULAR_STRING: O=S(=O)(NCc1ccco1)c1ccc(Cl)cc1
MEASUREMENT_TYPE: POC (percent of control) HDF
EXPERIMENTAL_RESULT: 103.1% of control
//
MOLECULAR_STRING: Cc1cccc2[nH]cc(CNS(=O)(=O)c3ccc(Cl)cc3)c12
MEASUREMENT_TYPE: POC (percent of control) HDF
EXPERIMENTAL_RESULT: 66.2% of control
//
MOLECULAR_STRING: Cc1ccc(S(=O)(=O)NCc2coc(C)n2)cc1
MEASUREMENT_TYPE: POC (percent of control) HDF
EXPERIMENTAL_RESULT: 113.6% of control
//
MOLECULAR_STRING: Cc1cccc2c(CNS(=O)(=O)c3ccccc3)c[nH]c12
MEASUREMENT_TYPE: POC (percent of control) HDF
EXPERIMENTAL_RESULT: 61.3% of control
//
MOLECULAR_STRING: O=S(=O)(NCc1c[nH]c2ccccc12)c1ccc(Cl)cc1
MEASUREMENT_TYPE: POC (percent of control) HDF
EXPERIMENTAL_RESULT: 57.6% of control
//
MOLECULAR_STRING: Cc1ccc(S(=O)(=O)NCc2c[nH]c3cccc(Br)c23)cc1
MEASUREMENT_TYPE: POC (percent of control) HDF
EXPERIMENTAL_RESULT: 83.5% of control
//
MOLECULAR_STRING: Cc1ccc(S(=O)(=O)NCc2nccs2)cc1
MEASUREMENT_TYPE: POC (percent of control) HDF
EXPERIMENTAL_RESULT: 87.3% of control
//
MOLECULAR_STRING: Cc1ccc(S(=O)(=O)NCc2cnccn2)cc1
MEASUREMENT_TYPE: POC (percent of control) HDF
EXPERIMENTAL_RESULT: 98.3% of control
//
MOLECULAR_STRING: Cc1ccc(S(=O)(=O)NCc2ccc3ncccc3c2)cc1
MEASUREMENT_TYPE: POC (percent of control) HDF
EXPERIMENTAL_RESULT: 85.5% of control
//
MOLECULAR_STRING: Cn1ncc2cc(CNS(=O)(=O)c3ccc(Cl)cc3)ccc21
MEASUREMENT_TYPE: POC (percent of control) HDF
EXPERIMENTAL_RESULT: 82.2% of control
//
MOLECULAR_STRING: CC(=O)n1cc(CNS(=O)(=O)c2ccc(Cl)cc2)c2ccccc21
MEASUREMENT_TYPE: POC (percent of control) HDF
EXPERIMENTAL_RESULT: 88.6% of control
//
MOLECULAR_STRING: Cn1cc(CNS(=O)(=O)c2ccc(Cl)cc2)cn1
MEASUREMENT_TYPE: POC (percent of control) HDF
EXPERIMENTAL_RESULT: 89.8% of control

Data provenance is patent US20230266302A1.
